- Tested on: HCC-2998 colon
- Assay comment: NCI tumour cell line growth inhibition, 48 h
Readout label: TGI

Entry under review: "Cc1nn(C(=O)CC(=O)Nc2ccc(Cl)cc2)c(C)c1N=Nc1ccccc1C(=O)O" . Reported TGI?
> 100 µM

Entry under review: "Cc1ccc(NC(=O)CCc2nnc(N)o2)cc1" . Reported TGI?
> 100 µM

Entry under review: "CSc1ccsc1-c1sc(-c2cc(SC)c(-c3sc(-c4cc(SC)c(-c5sccc5SC)s4)cc3SC)s2)cc1SC" . Reported TGI?
> 100 µM

Kindly review the next molecule as well.
Entry under review: "CN1CC[C@@H](c2c(O)cc(O)c3c(=O)cc(-c4ccc(C(F)(F)F)cc4Cl)oc23)[C@@H]1CO" . Reported TGI?
33.1 µM

---

- Tested on: UACC-62 melanoma
- Assay comment: NCI tumour cell line growth inhibition, 48 h
Readout label: TGI

Take a look at these entries with their results.
Entry under review: "C=COC(=O)N[C@H]1CCc2cc(OC)c(OC)c(OC)c2-c2ccc(SC)c(=O)cc21" . Reported TGI?
> 75 µM

Entry under review: "O=C1NI(C#Cc2ccccc2)c2ccccc21" . Reported TGI?
> 100 µM

Entry under review: "Cn1cnnc1Sc1c([N+](=O)[O-])ncn1C" . Reported TGI?
> 100 µM

Others:
Entry under review: "Cc1cc2cc3c(=O)[nH]c(=O)[nH]c3nc2cc1C" . Reported TGI?
> 100 µM

---

- Tested on: HT29 colon
- Assay comment: NCI tumour cell line growth inhibition, 48 h; in the data active means GI50 below about 0.43 µM; inactive means the rest
Answer with one of the outcomes given here: Y for active, N for inactive

Below are worked cases with known answers.
Given "COc1cc(/C=C\c2cc(OC)c(OC)c(OC)c2)cc(N/C=C\C(=O)c2cc(OC)c(OC)c(OC)c2)c1OC" , state the outcome it received in this test.
N

Given "O=[N+]([O-])c1cccc2ccc(N/N=C/c3ccccc3O)nc12" , state the outcome it received in this test.
N

Given "CN(C)C(=S)Sc1ccc([N+](=O)[O-])cc1[N+](=O)[O-]" , state the outcome it received in this test.
Y

Others:
Given "NCCCn1c2c(c3ccc([N+](=O)[O-])cc3c1=O)C(=O)c1ccccc1-2" , state the outcome it received in this test.
Y

---

This section presents compounds with their documented TGI values.
- Test system: MCF7 breast
- Assay comment: NCI tumour cell line growth inhibition, 48 h

Take a look at these entries with their results.
Entry under review: "CCC(=O)O[C@H]1CC[C@H]2[C@@H]3CCC4=C/C(=N/OC(=O)c5cccc6cc7ccccc7nc56)CC[C@]4(C)[C@H]3CC[C@]12C" . Reported TGI?
> 100 µM

Entry under review: "O=C(NNc1ccccc1)C(=O)NNc1ccccc1" . Reported TGI?
> 100 µM

Entry under review: "CN(C)C(=S)Sc1ccc([N+](=O)[O-])cc1[N+](=O)[O-]" . Reported TGI?
5.03 µM

Entry under review: "COC(=O)C1=C(O)c2ccc(Cl)cc2S(=O)(=O)N1C" . Reported TGI?
> 100 µM

Kindly review the next compound as well.
Entry under review: "O=C(CNS(=O)(=O)Cc1ccccc1)NNc1ccccc1" . Reported TGI?
> 100 µM

---

- System: T-47D breast
- Assay comment: NCI tumour cell line growth inhibition, 48 h
This section presents compounds with their documented GI50 values.

Take a look at these entries with their results.
Entry under review: Nc1ccn(C2OC(CO)C(O)C2O)c(=O)n1 (stereo unspecified) . Reported GI50?
4200 nM

Entry under review: COc1cc(C2CC(c3cccc(Nc4ccncc4)c3)=NN2c2ccc(Cl)cc2)cc(OC)c1OC (stereo unspecified) . Reported GI50?
1790 nM

Entry under review: "Cc1cc(N(CCCNc2ccnc3cc(Cl)ccc23)Cc2ccc3c(c2)OCO3)nc(N2CCOCC2)n1" . Reported GI50?
323 nM

Entry under review: CC(C)OC(=O)[C@H](C)NP(=O)(OC[C@H]1O[C@@H](n2ccc(=O)[nH]c2=O)[C@](C)(F)[C@@H]1O)Oc1ccccc1 (stereo partly specified) . Reported GI50?
> 100000 nM

Entry under review: "CS(=O)(=O)Nc1cc(-c2ccc3ncnc(Nc4c(Cl)ccc5c4OCO5)c3c2)cnc1Cl" . Reported GI50?
24.3 nM

Others:
Entry under review: "COc1ccc(Cn2c(N)c(S(=O)(=O)c3ccc(Cl)cc3)c3nc(C#N)c(C#N)nc32)cc1" . Reported GI50?
> 50000 nM
